# target.or.test.system: CA IX on live Ramos B cells (Homo sapiens)
# assay.info: SPRM kinetic titration of small molecules on live Ramos B suspension cells (1:1 kinetic model, 600 ROIs)
# test.context: KD, Batch 2
value.type: pKd
Bear in mind: pKd is minus log10 of a mol/L concentration; give just that figure.

Given NS(=O)(=O)c1ccc(C(=O)O)cc1 [4-CBS, 4-Carboxybenzenesulfonamide] , state its recorded pKd. 6.00

---

# target.or.test.system: CA IX on live Ramos B cells (Homo sapiens, UniProt Q16790)
# assay.info: SPRM kinetic titration of small molecules on live Ramos B suspension cells (1:1 kinetic model, 600 ROIs)
# test.context: KD, Batch 3
value.type: Kd

Given NS(=O)(=O)c1ccc(C(=O)O)cc1 [4-CBS, 4-Carboxybenzenesulfonamide] , state its recorded Kd. 0.78 µM
